target: human recombinant M1 (Homo sapiens); assay: Binding affinity at Muscarinic M1 receptor; conditions: read-out: Receptor Affinity (pKi) Muscarinic M1 (converted)
Sequence (P11229 whole entry): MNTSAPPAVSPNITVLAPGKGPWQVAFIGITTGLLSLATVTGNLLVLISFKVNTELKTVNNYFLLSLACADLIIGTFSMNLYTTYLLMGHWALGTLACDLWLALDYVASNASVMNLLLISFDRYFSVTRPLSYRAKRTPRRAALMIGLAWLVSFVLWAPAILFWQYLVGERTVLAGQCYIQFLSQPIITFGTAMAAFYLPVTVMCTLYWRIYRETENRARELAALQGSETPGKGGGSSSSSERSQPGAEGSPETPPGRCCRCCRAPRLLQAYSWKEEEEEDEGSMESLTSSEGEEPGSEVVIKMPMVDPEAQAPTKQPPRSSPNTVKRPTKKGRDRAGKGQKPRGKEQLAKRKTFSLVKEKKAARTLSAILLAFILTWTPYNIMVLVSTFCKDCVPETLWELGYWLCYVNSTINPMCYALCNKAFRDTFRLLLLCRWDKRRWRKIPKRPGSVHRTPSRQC
Answer each item with its documented Ki.

What value of measured Ki is listed for "O=c1[nH]c2c(N3CCNCC3)cccc2n1Cc1ccccc1" ?
200 nM

Name the reported Ki value associated with the compound "CN1CCN(c2cccc3c(S(=O)(=O)c4ccccc4)c[nH]c23)CC1"
> 316 nM

Quick one: Ki for N=C(N)NCC1CCCc2cc(S(=O)(=O)c3ccccc3)ccc21 (stereo not drawn) ?
> 1000 nM

Form field: reported Ki of CN(C)CCO/N=C(/C=C/c1ccc(O)cc1)c1ccccc1F [SR46349B, reference compound]
> 316 nM

# input compound: "O=C1COc2c(N3CCNCC3)cccc2N1Cc1ccccc1" ; wanted: its Ki
> 1000 nM

Give its Ki value. Item: "O=C1NCc2c(N3CCNCC3)cccc2N1Cc1cccc(F)c1"
> 1000 nM
